inhibition at 0.1 µM listing for selected molecules.
biological target: P2X7 receptor (Homo sapiens); construct: host or cells: THP-1 cells differentiated with LPS and IFN-γ; experiment: IL-1β release assay in differentiated THP-1 cells stimulated with BzATP (Example 9); assay type: cell-based; settings: 0.1 μM compound; differentiated THP-1 cells, BzATP 250 uM; "*" symbols; read-out: IL-1β % Inhib. @ 0.3 or 0.1 uM
Sequence (Q99572 whole entry): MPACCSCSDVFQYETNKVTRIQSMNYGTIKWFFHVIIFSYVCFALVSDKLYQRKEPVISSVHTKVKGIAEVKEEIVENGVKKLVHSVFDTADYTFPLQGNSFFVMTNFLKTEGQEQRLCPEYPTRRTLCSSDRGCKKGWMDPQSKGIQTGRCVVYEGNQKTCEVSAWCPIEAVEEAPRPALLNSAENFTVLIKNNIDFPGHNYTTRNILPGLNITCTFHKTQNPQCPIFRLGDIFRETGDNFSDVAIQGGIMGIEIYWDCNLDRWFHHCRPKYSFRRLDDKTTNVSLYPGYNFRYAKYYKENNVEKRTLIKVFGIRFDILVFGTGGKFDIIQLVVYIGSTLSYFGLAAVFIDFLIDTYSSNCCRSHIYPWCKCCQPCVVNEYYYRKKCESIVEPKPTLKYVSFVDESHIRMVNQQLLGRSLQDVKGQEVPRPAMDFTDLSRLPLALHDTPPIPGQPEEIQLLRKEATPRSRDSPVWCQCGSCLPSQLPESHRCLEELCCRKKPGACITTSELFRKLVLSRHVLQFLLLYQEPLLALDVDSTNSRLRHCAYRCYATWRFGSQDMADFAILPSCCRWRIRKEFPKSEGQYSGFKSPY

For orientation, consider the following solved cases.
Cc1cccc(CC(=O)Nc2cccc3c(=O)n(CC(C)(C)O)ccc23)c1
0 to 25%
Cc1ccc(CC(=O)Nc2cccc3c(=O)n(CC(C)(C)O)ccc23)cc1
0 to 25%
CC(C)(O)Cn1ccc2c(NC(=O)c3cccc4ccccc34)cccc2c1=O
0 to 25%
COc1ccc(CC(=O)Nc2cccc3c(=O)n(CC(C)(C)O)ccc23)cc1
0 to 25%
CC(C)(O)Cn1ccc2c(NC(=O)c3ccccc3Cl)cccc2c1=O
51 to 75%
COc1ccc(OC)c(CC(=O)Nc2cccc3c(=O)n(CC(C)(C)O)ccc23)c1
0 to 25%

Quick one: inhibition at 0.1 µM for `CC(C)(O)Cn1ccc2c(NC(=O)c3cccc4c3OCCO4)cccc2c1=O` ? 0 to 25%

Quick one: inhibition at 0.1 µM for `CC(C)(O)Cn1ccc2c(NC(=O)Cc3ccc4c(c3)OCO4)cccc2c1=O` ? 0 to 25%

Quick one: inhibition at 0.1 µM for `Cc1ccccc1C(=O)Nc1cccc2c(=O)n(CC(C)(C)O)ccc12` ? 0 to 25%

Quick one: inhibition at 0.1 µM for `CC(C)(O)Cn1ccc2c(NC(=O)c3ccc(Cl)cc3Cl)cccc2c1=O` ? 0 to 25%

Quick one: inhibition at 0.1 µM for `CC(C)(O)Cn1ccc2c(NC(=O)c3cc(Cl)ccc3Cl)cccc2c1=O` ? 0 to 25%

Quick one: inhibition at 0.1 µM for `COc1ccc(C(=O)Nc2cccc3c(=O)n(CC(C)(C)O)ccc23)cc1C` ? 0 to 25%

Quick one: inhibition at 0.1 µM for `CC(C)(O)Cn1ccc2c(NC(=O)c3cc(Cl)cc(Cl)c3)cccc2c1=O` ? 0 to 25%

Quick one: inhibition at 0.1 µM for `CC(C)(O)Cn1ccc2c(NC(=O)Cc3ccccc3Cl)cccc2c1=O` ? 0 to 25%

Quick one: inhibition at 0.1 µM for `CC(C)(O)Cn1ccc2c(NC(=O)c3ccc4c(c3)OCCCO4)cccc2c1=O` ? 0 to 25%

Quick one: inhibition at 0.1 µM for `Cc1ccc(C(=O)Nc2cccc3c(=O)n(CC(C)(C)O)ccc23)c(C)c1` ? 0 to 25%

Quick one: inhibition at 0.1 µM for `COc1cccc(CC(=O)Nc2cccc3c(=O)n(CC(C)(C)O)ccc23)c1` ? 26 to 50%

Quick one: inhibition at 0.1 µM for `CC(C)(O)Cn1ccc2c(NC(=O)Cc3csc4ccccc34)cccc2c1=O` ? 26 to 50%

Quick one: inhibition at 0.1 µM for `Cc1ccc(C)c(C(=O)Nc2cccc3c(=O)n(CC(C)(C)O)ccc23)c1` ? 0 to 25%

Quick one: inhibition at 0.1 µM for `COc1cc(CC(=O)Nc2cccc3c(=O)n(CC(C)(C)O)ccc23)cc(OC)c1` ? 0 to 25%

Quick one: inhibition at 0.1 µM for `CCOc1ccc(CC(=O)Nc2cccc3c(=O)n(CC(C)(C)O)ccc23)cc1` ? 26 to 50%

Quick one: inhibition at 0.1 µM for `COc1ccccc1CC(=O)Nc1cccc2c(=O)n(CC(C)(C)O)ccc12` ? 0 to 25%

Quick one: inhibition at 0.1 µM for `Cc1c(Cl)cccc1C(=O)Nc1cccc2c(=O)n(CC(C)(C)O)ccc12` ? 0 to 25%

Quick one: inhibition at 0.1 µM for `Cc1cc(C)cc(CC(=O)Nc2cccc3c(=O)n(CC(C)(C)O)ccc23)c1` ? 0 to 25%

Quick one: inhibition at 0.1 µM for `Cc1ccc(C(=O)Nc2cccc3c(=O)n(CC(C)(C)O)ccc23)cc1Cl` ? 26 to 50%

Quick one: inhibition at 0.1 µM for `Cc1cc(Cl)ccc1C(=O)Nc1cccc2c(=O)n(CC(C)(C)O)ccc12` ? 26 to 50%

Quick one: inhibition at 0.1 µM for `CC(C)(O)Cn1ccc2c(NC(=O)Cc3cccc4ccccc34)cccc2c1=O` ? 0 to 25%

Quick one: inhibition at 0.1 µM for `Cc1ccccc1CC(=O)Nc1cccc2c(=O)n(CC(C)(C)O)ccc12` ? 0 to 25%

Quick one: inhibition at 0.1 µM for `CC(C)(O)Cn1ccc2c(NC(=O)c3cc4ccccc4o3)cccc2c1=O` ? 0 to 25%

Quick one: inhibition at 0.1 µM for `CC(C)(O)Cn1ccc2c(NC(=O)c3ccc4ccccc4c3)cccc2c1=O` ? 0 to 25%

Quick one: inhibition at 0.1 µM for `CC(C)(O)Cn1ccc2c(NC(=O)Cc3ccccc3F)cccc2c1=O` ? 0 to 25%

Entry source: patent US20110092476A1
